Entry source: patent EP2914280B1

Experimental System: hDRD2 (Homo sapiens, UniProt P14416);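 also: agonist activity at human DRD2 in DRD2-expressing cells, read as intracellular calcium mobilization with a FLIPR Calcium 4 fluorescent dye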
Sequence (P14416 whole entry): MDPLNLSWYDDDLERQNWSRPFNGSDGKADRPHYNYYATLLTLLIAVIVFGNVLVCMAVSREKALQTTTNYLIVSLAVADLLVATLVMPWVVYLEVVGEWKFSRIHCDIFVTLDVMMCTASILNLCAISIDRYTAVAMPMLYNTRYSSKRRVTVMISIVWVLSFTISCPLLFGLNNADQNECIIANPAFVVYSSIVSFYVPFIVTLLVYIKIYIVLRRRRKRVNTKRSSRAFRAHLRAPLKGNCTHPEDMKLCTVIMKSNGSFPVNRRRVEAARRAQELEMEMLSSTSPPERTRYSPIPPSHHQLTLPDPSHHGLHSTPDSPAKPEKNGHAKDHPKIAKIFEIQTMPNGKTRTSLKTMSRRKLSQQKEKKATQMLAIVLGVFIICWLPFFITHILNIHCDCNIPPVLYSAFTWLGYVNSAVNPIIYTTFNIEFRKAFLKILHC
Assay Explanation: cell-based
compounds and their reported EC50
Readout Name: EC50 (nM)

1. C[C@@H](O)[C@@H]1NC(=O)[C@H](CCCCN)NC(=O)[C@@H](Cc2c[nH]c3ccccc23)NC(=O)[C@H](Cc2ccccc2)NC(=O)[C@H](Cc2ccccc2)NC(=O)[C@H](CCCNC(=N)N)NC(=O)[C@H](NCCSC[C@@H]2C[C@@H]3c4cccc5[nH]cc(c45)C[C@H]3N(C)C2)CCCCNC(=O)[C@H](Cc2ccccc2)NC1=O 34.1
2. C[C@@H](O)[C@@H]1NC(=O)[C@H](CCCCN)NC(=O)[C@@H](Cc2c[nH]c3ccccc23)NC(=O)[C@H](Cc2ccccc2)NC(=O)[C@H](Cc2ccccc2)NC(=O)[C@H](CCCNC(=N)N)NC(=O)[C@H](NCCCCC[C@@H]2C[C@@H]3c4cccc5[nH]cc(c45)C[C@H]3N(C)C2)CCCCNC(=O)[C@H](Cc2ccc(F)cc2)NC1=O 212
3. C[C@@H](O)[C@@H]1NC(=O)[C@H](CCCCN)NC(=O)[C@@H](Cc2c[nH]c3ccccc23)NC(=O)[C@H](Cc2ccccc2)NC(=O)[C@H](Cc2ccccc2)NC(=O)[C@H](CCCNC(=N)N)NC(=O)[C@H](NCCSC[C@@H]2C[C@@H]3c4cccc5[nH]cc(c45)C[C@H]3N(C)C2)CCCCNC(=O)[C@H](Cc2c(F)c(F)c(F)c(F)c2F)NC1=O 480
4. CC(=O)N(CCCN(C(C)=O)[C@@H]1CCCCNC(=O)[C@H](Cc2ccc(F)cc2)NC(=O)[C@H]([C@@H](C)O)NC(=O)[C@H](CCCCN)NC(=O)[C@@H](Cc2c[nH]c3ccccc23)NC(=O)[C@H](Cc2ccccc2)NC(=O)[C@H](Cc2ccccc2)NC(=O)[C@H](CCCNC(=N)N)NC1=O)C[C@@H]1C[C@@H]2c3cccc4[nH]cc(c34)C[C@H]2N(C)C1 265
